Entries and their Pre-emergence activity (GR80) on ABUTH values follow.
# System: ABUTH
# experiment.description: Pre-emergence herbicidal activity on ABUTH (velvetleaf)
# Assay type: in vivo, Abutilon theophrasti
# experimental.setup: lowest tested rate giving 80% or greater inhibition, approx. 14 days after planting and treating, greenhouse
Write it as a number; the unit g/ha goes unstated.

# count of solved cases: 4
compound	Pre-emergence activity (GR80) on ABUTH [g/ha]
Cc1cccc(C(=O)NC(C)CNC(=O)c2cccc(C(F)(F)F)c2)c1C (stereo not shown)	500
CC(CNC(=O)c1cccc(C(F)(F)F)c1)NC(=O)c1cccc(C(F)(F)F)c1 (stereo not shown)	1000
CC(CNC(=O)c1cccc(C(F)(F)F)c1)NC(=O)c1cccc(F)c1Cl (stereo not shown)	250
CCSc1ncccc1C(=O)NC(C)CNC(=O)c1cccc(C(F)(F)F)c1 (stereo not shown)	500

Moving on to another compound below.
// Pre-emergence activity (GR80) on ABUTH value for Cc1c(Cl)cccc1C(=O)NC(C)CNC(=O)c1cccc(C(F)(F)F)c1F (stereo not shown) : 1000
